Provenance of the data: paper PMC8745332

STUDY TARGET: human HDAC1 (Homo sapiens, UniProt Q13547)
Construct: purchased ENZO Life Sciences AG (Lausen, CH)
Sequence (Q13547 whole entry): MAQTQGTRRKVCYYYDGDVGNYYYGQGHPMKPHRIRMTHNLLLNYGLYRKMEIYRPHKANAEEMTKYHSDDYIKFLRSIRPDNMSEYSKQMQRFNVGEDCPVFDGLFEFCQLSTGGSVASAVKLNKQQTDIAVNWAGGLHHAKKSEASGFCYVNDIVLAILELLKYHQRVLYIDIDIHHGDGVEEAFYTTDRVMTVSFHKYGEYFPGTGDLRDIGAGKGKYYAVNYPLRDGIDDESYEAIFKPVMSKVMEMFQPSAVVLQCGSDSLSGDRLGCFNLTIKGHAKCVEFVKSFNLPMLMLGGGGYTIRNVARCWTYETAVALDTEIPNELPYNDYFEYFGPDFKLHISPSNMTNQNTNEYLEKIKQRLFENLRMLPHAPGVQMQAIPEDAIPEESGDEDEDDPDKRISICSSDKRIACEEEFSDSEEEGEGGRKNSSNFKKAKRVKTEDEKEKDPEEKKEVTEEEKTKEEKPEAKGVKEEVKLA
PROTOCOL TEXT: In vitro HDAC1 inhibition assay, fluorogenic p53 peptide Ac-RHKK(Acetyl)-AMC
Format: biochemical
TEST CONDITIONS: 10 nM HDAC1, 20 µM substrate, 90 min, 37 °C
Condition met if IC50 is below 0.3 µM. Condition not met if not; exact matches included in Condition not met.

>>> assigned_category("Nc1cc(F)c(F)cc1NC(=O)c1cnc(N2CCN(CCc3c[nH]c4ccccc34)CC2)cn1 [19h]")
"Condition not met"
>>> assigned_category("Nc1ccc(-c2cccs2)cc1NC(=O)c1cnc(N2CCNCC2)cn1 [29b]")
"Condition met"
>>> assigned_category("Nc1ccccc1NC(=O)c1cnc(N2CCN(CCc3c[nH]c4ccccc34)CC2)cn1 [19g]")
"Condition not met"
>>> assigned_category("COc1ccc(NC(=O)c2cnc(N3CCNCC3)cn2)c(N)c1 [27c]")
"Condition not met"
>>> assigned_category("Cn1cc(CCN2CCN(c3cnc(C(=O)Nc4cc(F)ccc4N)cn3)CC2)c2ccccc21 [23c]")
"Condition not met"

---

STUDY TARGET: human HDAC1 (Homo sapiens)
Construct: purchased ENZO Life Sciences AG (Lausen, CH)
PROTOCOL TEXT: In vitro HDAC1 inhibition assay, fluorogenic p53 peptide Ac-RHKK(Acetyl)-AMC
Format: biochemical
TEST CONDITIONS: 10 nM HDAC1, 20 µM substrate, 90 min, 37 °C
# IC50 listing for each entry below
METRIC NAME: IC50 (µM)

>>> experimental_result("Cn1cc(CN2CCN(c3cnc(C(=O)Nc4ccccc4N)cn3)CC2)c2ccccc21 [19k]")
0.14
>>> experimental_result("Cn1cc(CN2CCN(c3ncc(C(=O)Nc4ccccc4N)cn3)CC2)c2ccccc21 [19j]")
0.45
>>> experimental_result("Cn1cc(CN2CCN(c3cnc(C(=O)Nc4cc(F)ccc4N)cn3)CC2)c2ccccc21 [23b]")
0.27
>>> experimental_result("CN1CCN(c2cnc(C(=O)Nc3cc(-c4ccsc4)ccc3N)cn2)CC1 [29a]")
0.11
>>> experimental_result("Nc1ccccc1NC(=O)c1cnc(N2CCN(Cc3csc4ccccc34)CC2)cn1 [19e]")
0.21
>>> experimental_result("Cn1cc(CCN2CCN(c3cnc(C(=O)Nc4ccc(F)cc4N)cn3)CC2)c2ccccc21 [19m]")
0.4
>>> experimental_result("Cn1cc(CN2CCN(c3cnc(C(=O)Nc4cc(F)c(F)cc4N)cn3)CC2)c2ccccc21 [19l]")
0.29
>>> experimental_result("Nc1ccccc1NC(=O)c1cnc(N2CCN(Cc3ccccn3)CC2)cn1 [19d]")
0.52
>>> experimental_result("Nc1ccc(-c2ccc(F)cc2)cc1NC(=O)c1cnc(N2CCNCC2)cn1 [29c]")
0.16

---

STUDY TARGET: human HDAC3/NCOR1 (Homo sapiens, UniProt O15379)
Construct: purchased ENZO Life Sciences AG (Lausen, CH)
Sequence (O15379 whole entry): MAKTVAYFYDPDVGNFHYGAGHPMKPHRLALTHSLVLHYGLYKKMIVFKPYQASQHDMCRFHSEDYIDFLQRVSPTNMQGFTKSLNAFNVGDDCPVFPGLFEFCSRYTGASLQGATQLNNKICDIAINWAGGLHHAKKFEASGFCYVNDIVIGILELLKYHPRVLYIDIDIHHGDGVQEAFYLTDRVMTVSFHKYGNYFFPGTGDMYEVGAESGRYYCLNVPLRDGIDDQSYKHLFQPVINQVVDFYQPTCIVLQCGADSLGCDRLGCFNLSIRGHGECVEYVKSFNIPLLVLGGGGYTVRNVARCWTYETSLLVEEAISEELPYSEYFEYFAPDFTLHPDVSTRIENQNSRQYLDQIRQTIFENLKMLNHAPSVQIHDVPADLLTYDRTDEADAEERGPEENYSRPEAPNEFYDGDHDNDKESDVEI
Sequence (O75376 395-489 partner limits assumed): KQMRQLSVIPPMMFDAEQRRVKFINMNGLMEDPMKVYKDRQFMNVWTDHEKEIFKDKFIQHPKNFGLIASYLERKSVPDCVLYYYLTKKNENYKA
PROTOCOL TEXT: In vitro HDAC3 inhibition assay, fluorogenic p53 peptide Ac-RHKK(Acetyl)-AMC
Format: biochemical
TEST CONDITIONS: 3 nM HDAC3, 20 µM substrate, 30 min, 37 °C
METRIC NAME: IC50 (µM)

>>> experimental_result("Nc1ccccc1NC(=O)c1cnc(N2CCN(Cc3csc4ccccc34)CC2)cn1 [19e]")
0.84
>>> experimental_result("Nc1ccccc1NC(=O)c1cnc(N2CCN(CCc3ccccc3)CC2)cn1 [19a]")
1.12
>>> experimental_result("Cn1cc(CN2CCN(c3cnc(C(=O)Nc4ccccc4N)cn3)CC2)c2ccccc21 [19k]")
0.59
